Test system: Uromyces appendiculatus
Assay Method Text: Fungicidal activity against Uromyces appendiculatus inoculated in Phaseolus vulgaris placed in growth room after 24 hr incubation assessed as direct protection after 6 to 10 days
Format: functional
Recorded Endpoint: MIC

{"Compound": "Clc1ccc([C@H](COCc2ccccc2)Cn2cncn2)c(Cl)c1", "Target Or Test System": "Uromyces appendiculatus", "Recorded Endpoint": "MIC", "Observed Measurement": "50 µg/mL"}
{"Compound": "C=C(C)COCC(Cn1cncn1)c1ccc(Cl)cc1Cl (racemic)", "Target Or Test System": "Uromyces appendiculatus", "Recorded Endpoint": "MIC", "Observed Measurement": "150 µg/mL"}
{"Compound": "Clc1ccc(C(COCc2ccc3ccccc3c2)Cn2cncn2)c(Cl)c1 (racemic)", "Target Or Test System": "Uromyces appendiculatus", "Recorded Endpoint": "MIC", "Observed Measurement": "120 µg/mL"}
{"Compound": "Clc1ccc(C(COCc2cccs2)Cn2cncn2)c(Cl)c1 (racemic)", "Target Or Test System": "Uromyces appendiculatus", "Recorded Endpoint": "MIC", "Observed Measurement": "200 µg/mL"}
{"Compound": "Clc1ccc(C(COCc2ccc(OCc3cccc(OCc4ccccc4)c3)cc2)Cn2cncn2)c(Cl)c1 (racemic)", "Target Or Test System": "Uromyces appendiculatus", "Recorded Endpoint": "MIC", "Observed Measurement": "140 µg/mL"}
{"Compound": "O=[N+]([O-])c1ccc(COCC(Cn2cncn2)c2ccc(Cl)cc2Cl)cc1 (racemic)", "Target Or Test System": "Uromyces appendiculatus", "Recorded Endpoint": "MIC", "Observed Measurement": "43 µg/mL"}
{"Compound": "OCCCOCC(Cn1cncn1)c1ccc(Cl)cc1Cl (racemic)", "Target Or Test System": "Uromyces appendiculatus", "Recorded Endpoint": "MIC", "Observed Measurement": "> 200 µg/mL"}
{"Compound": "C=C(Cn1cncn1)c1ccc(Cl)cc1Cl", "Target Or Test System": "Uromyces appendiculatus", "Recorded Endpoint": "MIC", "Observed Measurement": "150 µg/mL"}
{"Compound": "Clc1ccc(COCC(Cn2cncn2)c2ccc(Cl)cc2Cl)c(Cl)c1 (racemic)", "Target Or Test System": "Uromyces appendiculatus", "Recorded Endpoint": "MIC", "Observed Measurement": "30 µg/mL"}
{"Compound": "C=C(Cl)COCC(Cn1cncn1)c1ccc(Cl)cc1Cl (racemic)", "Target Or Test System": "Uromyces appendiculatus", "Recorded Endpoint": "MIC", "Observed Measurement": "> 100 µg/mL"}
{"Compound": "C=CCOCC(Cn1cncn1)c1ccc(Cl)cc1Cl (racemic)", "Target Or Test System": "Uromyces appendiculatus", "Recorded Endpoint": "MIC", "Observed Measurement": "200 µg/mL"}
{"Compound": "Clc1ccc(C(COCc2cccc(Oc3ccccc3)c2)Cn2cncn2)c(Cl)c1 (racemic)", "Target Or Test System": "Uromyces appendiculatus", "Recorded Endpoint": "MIC", "Observed Measurement": "50 µg/mL"}
{"Compound": "N#CCCOCC(Cn1cncn1)c1ccc(Cl)cc1Cl (racemic)", "Target Or Test System": "Uromyces appendiculatus", "Recorded Endpoint": "MIC", "Observed Measurement": "250 µg/mL"}
{"Compound": "Clc1ccc([C@@H](COCc2ccccc2)Cn2cncn2)c(Cl)c1", "Target Or Test System": "Uromyces appendiculatus", "Recorded Endpoint": "MIC", "Observed Measurement": "50 µg/mL"}
{"Compound": "C=CCOC[C@H](Cn1cncn1)c1ccc(Cl)cc1Cl", "Target Or Test System": "Uromyces appendiculatus", "Recorded Endpoint": "MIC", "Observed Measurement": "100 µg/mL"}
{"Compound": "Clc1ccc(C(COCc2ccc(OCc3ccccc3)cc2)Cn2cncn2)c(Cl)c1 (racemic)", "Target Or Test System": "Uromyces appendiculatus", "Recorded Endpoint": "MIC", "Observed Measurement": "35 µg/mL"}
{"Compound": "CC(C)=CCOCC(Cn1cncn1)c1ccc(Cl)cc1Cl (racemic)", "Target Or Test System": "Uromyces appendiculatus", "Recorded Endpoint": "MIC", "Observed Measurement": "160 µg/mL"}
{"Compound": "C=CCOC[C@@H](Cn1cncn1)c1ccc(Cl)cc1Cl", "Target Or Test System": "Uromyces appendiculatus", "Recorded Endpoint": "MIC", "Observed Measurement": "25 µg/mL"}
{"Compound": "FC(F)C(F)(F)OCC(Cn1cncn1)c1ccc(Cl)cc1Cl (configuration not stated)", "Target Or Test System": "Uromyces appendiculatus", "Recorded Endpoint": "MIC", "Observed Measurement": "25 µg/mL"}
{"Compound": "Clc1ccc(C(COC/C=C/c2ccccc2)Cn2cncn2)c(Cl)c1 (racemic)", "Target Or Test System": "Uromyces appendiculatus", "Recorded Endpoint": "MIC", "Observed Measurement": "140 µg/mL"}
{"Compound": "COc1ccc(COCC(Cn2cncn2)c2ccc(Cl)cc2Cl)cc1 (racemic)", "Target Or Test System": "Uromyces appendiculatus", "Recorded Endpoint": "MIC", "Observed Measurement": "30 µg/mL"}
{"Compound": "Clc1ccc(C(COCCCc2ccccc2)Cn2cncn2)c(Cl)c1 (racemic)", "Target Or Test System": "Uromyces appendiculatus", "Recorded Endpoint": "MIC", "Observed Measurement": "200 µg/mL"}
